- Test system: Salmonella typhimurium
- measurement-description: Antimicrobial activity against Salmonella Typhimurium ATCC 14028 assessed as inhibition of biofilm formation after 24 hrs by spectrophotometry
- Format: functional, organism-based, Salmonella enterica subsp. enterica serovar Typhimurium
- recorded-conditions: Salmonella enterica, ATCC 14028, 24 h
test-readout: IC50 (µM)

Below are worked cases with known answers.
smiles-str: CCCCNc1ncc(-c2ccc(Br)cc2)[nH]1
measurement-target: Salmonella typhimurium
units-of-measure: µM
reported: 7.1
//
smiles-str: CCCCNc1ncc(-c2ccccc2)[nH]1
measurement-target: Salmonella typhimurium
units-of-measure: µM
reported: 25.3
//
smiles-str: CCCCNc1ncc(-c2ccc(F)cc2)[nH]1
measurement-target: Salmonella typhimurium
units-of-measure: µM
reported: 15.5
//
smiles-str: O[C@@]1(c2ccc(Cl)cc2)C[n+]2cccnc2N1C1CCCC1
measurement-target: Salmonella typhimurium
units-of-measure: µM
reported: 41.8
//
smiles-str: CCCCCCCCN1c2nccc[n+]2C[C@@]1(O)c1ccc(SC)cc1
measurement-target: Salmonella typhimurium
units-of-measure: µM
reported: 13.2

[A] O[C@@]1(c2ccc(Cl)cc2)C[n+]2cccnc2N1C1CCCCCC1
[B] O[C@@]1(c2ccccc2)C[n+]2cccnc2N1C1CCCCC1
[C] CC(C)CNc1ncc(-c2ccc([N+](=O)[O-])cc2)[nH]1
[D] CCCCCCCCN1c2nccc[n+]2C[C@@]1(O)c1ccc(-c2ccc(-c3ccccc3)cc2)cc1
Prompt: // smallest IC50 at index 0, largest at the end Returns: the labels listed in the requested order.
Completion: C, A, D, B
(C: 3.8 µM, A: 27.9 µM, D: 52.8 µM, B: 139 µM)

Data origin: ChEMBL document CHEMBL1811868
